- Test system: SF-295 CNS
- assay_comment: NCI-60 one-dose screen, 48 h
- details: 10 µM unless noted
About 83,000 compounds went through this panel and 20% of them were active in at least one assay; those are over-represented in the sample as a whole. The source made the active and inactive calls. How the source made its calls: active means growth percent below 10; inactive means the rest.
Could you please pick one outcome from this set? 1 for active, 0 for inactive

Known results for compounds:
INSERT INTO results (compound, system, qualitative_label) VALUES
  ('CC(C)(C)OC(=O)N1Cc2cc3ccccc3nc2C1CO (stereo not given)', 'SF-295 CNS', 0),
  ('COc1ccc(/C(C)=C(\c2ccc(Cl)cc2)c2ccc(OCCN3CCCCCC3)cc2)cc1F', 'SF-295 CNS', 1),
  ('CCOC(=O)c1ccc(-c2ccc3cc(OC)ccc3c2)nc1C', 'SF-295 CNS', 0),
  ('CCN(CC)N=Nc1nn(C(=O)Nc2ccc(Cc3ccccc3)cc2)c2ccc(Cl)cc12', 'SF-295 CNS', 1),
  ('NC(=O)c1c(NC(=O)c2ccccn2)sc2c1CCC(=O)C2', 'SF-295 CNS', 0);

What call does the record list for `CCCCN1CCN(c2ccc3nc(-c4ccc5nc(-c6ccc(OCC)c(OCC)c6)[nH]c5c4)[nH]c3c2)CC1` ? 1

// next record `Cc1ccc(NSc2ccccc2[N+](=O)[O-])cc1` 0

Repeat with `CC[C@@H](C[C@H](CCO)c1ccccc1)c1cc2ccccc2o1` 0

Next: `CCN(CC)c1ccc(Nc2ccc(CC(=O)c3ccccc3)cc2)cc1` 0

And for `C=C1C(=O)O[C@H]2[C@H]1CC/C(COC(=O)/C=C/C(=O)NCc1ccc(Cn3c(=O)sn(-c4ccccc4)c3=O)cc1)=C\CC[C@@]1(C)O[C@@H]21` ? 0

Ok, now `Cn1nnnc1-c1ccc(N)cc1` 0

Next compound up: `COc1cc(CNC(=O)/C=C/C=C/c2ccc3c(c2)OCO3)ccc1OCc1cn(-c2ccc(Cl)c(Cl)c2)nn1` 1

Cool, now O=C1c2ccccc2C2(c3ccc(O)cc3)c3ccccc3Oc3cccc1c32 (stereo not given) 0

Item: `CN(CCC(=O)/C(=C\c1ccccc1)c1ccc(Cl)cc1)Cc1ccccc1` 0

Subsequent entry: `Nc1nc(N)c(-c2ccc(Cl)cc2)c(/C=C/c2ccc([N+](=O)[O-])cc2)n1` 0

Quick one: CCCCC1COc2cccc3c(SCC(=O)N(C)c4cccc(Cl)c4)cc[n+]1c23 (stereo not given) 0

# iterate: `CCOC(=O)c1nnn(-c2ccccc2)c1C1=CN(C)CCC1` 0

Also need `O=[N+]([O-])c1cccc(/C=C/c2ccccn2)c1` , thanks. 0

Try `Cc1cnc(Nc2ccc(OCCN3CCCC3)cc2)nc1NCc1ccco1` next. 0

And `CN=C1C=CC(=C(c2ccc(N(C)C)cc2)c2ccc(N(C)C)cc2)C=C1` ? 1

###

- Tested on: TK-10 renal
- assay_comment: NCI-60 one-dose screen, 48 h (100 = growth as untreated, 0 = no growth, -100 = all killed)
- details: 10 µM unless noted
The panel holds about 83,000 compounds, 20% with a hit somewhere; the sample as a whole holds those more often.
Please note: Criterion met applies when growth is 70% or greater, and Criterion not met applies otherwise.

INSERT INTO results (compound, qualitative_label) VALUES
  ('CC1(C)C(=O)/C(=C\c2cccnc2)C[C@]2(C)[C@H]3CC=C4[C@@H]5C[C@@](C)(C(=O)O)CC[C@]5(C)CC[C@@]4(C)[C@]3(C)CC[C@@H]12', 'Criterion met'),
  ('C[C@H]1[C@H](C)CC[C@]2(C(=O)N3CCN(C)CC3)CC[C@]3(C)C(=CC[C@@H]4[C@@]5(C)C/C(=C/c6cccnc6)C(=O)C(C)(C)[C@@H]5CC[C@]43C)[C@H]12', 'Criterion not met'),
  ('C[N+](C)(C)CCOC(OCC[N+](C)(C)C)(c1ccccc1)c1ccccc1', 'Criterion met'),
  ('O=C(/C=C/C12c3ccccc3C(c3ccccc31)C1C(=O)N(c3ccc(Cl)cc3)C(=O)C12)c1ccccn1 (stereo not drawn)', 'Criterion not met'),
  ('CCn1nc(C#Cc2c(C)ccc3c(Nc4ccc(Cl)cc4)nccc23)c2c(N)ncnc21', 'Criterion not met'),
  ('N=C(N)c1ccc(-c2ccc(-c3ccc(Cl)cc3Cl)o2)nc1', 'Criterion not met'),
  ('CN1C[C@@H](c2ccc(Cl)cc2)[C@]2(NC(=S)N(c3ccccc3)C2=O)[C@@]12C(=O)NC1C=CC(Br)=C[C@H]12 (stereo partly drawn)', 'Criterion met'),
  ('O=C(Nc1ccccc1)c1sc(-c2cccc(C(F)(F)F)c2)cc1O', 'Criterion met'),
  ('CS(=O)(=O)c1ccc(-c2[nH]c3ccc(F)cc3c2/C=N/O)cc1', 'Criterion met'),
  ('COc1ccc(/C(C)=C(\c2ccc(Cl)cc2)c2ccc(OCCN(C)C)cc2)cc1F', 'Criterion not met');

Quick check: does `CCN(CC)CCOC(=O)N1c2ccccc2Sc2ccccc21` have growth greater than or equal to 70%? Criterion met

// same read-out, input: `COc1cc(C(=O)Nc2cc(O)c(CC=C(C)C)c(O)c2)cc2c1O[C@]1(C)CC[C@@H](O)C(C)(C)[C@H]1C2` Criterion not met

Another compound: `CN(C)c1ccc(/C=N/NC(=O)COc2cc(=O)n(C)c3ccccc23)cc1` Criterion met

Next compound up: `COc1ccc(/C(C)=N/NS(=O)(=O)c2ccc(C)cc2)cc1OC` Criterion met

Record: `O=[N+]([O-])c1ccc2[nH]cc(-c3c4ccsc4cc4[nH]c5ccc([N+](=O)[O-])cc5c34)c2c1` Criterion not met
